Provenance of the data: patent US10098889B2

Assay: High temperature test (stability study)
Format: physicochemical
Settings: 0 days
# reported Total impurity (%); entries follow

{"columns": ["smiles text", "output unit", "Total impurity (%)"],
 "data": [
  ["COC(=O)C1=C(CN2CCOC[C@H]2C(=O)O)NC(c2nccs2)=N[C@H]1c1ccc(F)cc1Cl", "%", 2.46],
  ["Br.COC(=O)C1=C(CN2CCOC[C@H]2C(=O)O)N=C(c2nccs2)N[C@H]1c1ccc(F)cc1Cl", "%", 0.30],
  ["COC(=O)C1=C(CN2CCOC[C@H]2C(=O)O)N=C(c2nccs2)N[C@H]1c1ccc(F)cc1Cl.O=C(O)C(O)C(O)C(=O)O", "%", 0.15],
  ["COC(=O)C1=C(CN2CCOC[C@H]2C(=O)O)N=C(c2nccs2)N[C@H]1c1ccc(F)cc1Cl.Cl", "%", 0.37]
]}
